Ref: ChEMBL document CHEMBL2390902

# TARGET OR TEST SYSTEM: Bifunctional epoxide hydrolase 2 (Homo sapiens, UniProt P34913)
pIC50: −log10 of the molar value.
Entry flag: yes if pIC50 reaches 7; no if it does not.

Example entries begin here.
CNc1nc(C)nc(N2CCC(C(=O)NCc3ccccc3OC)CC2)n1 no
Cc1nc(NC(C)C)nc(N2CCC(C(=O)NCc3ccccc3C(F)(F)F)CC2)n1 yes
CNc1nc(C)nc(N2CCC(C(=O)NCc3cccc(OC(F)(F)F)c3)CC2)n1 no
CNc1nc(C)nc(N2CCC(C(=O)NCc3ccc(F)cc3C(F)(F)F)CC2)n1 yes
CNc1nc(C)nc(N2CCC(C(=O)NCc3ccccc3C(F)(F)F)CC2)n1 yes

Task: Textbook exercise: given the entry CNc1nc(-c2ccccc2)nc(N2CCC(C(=O)NCc3ccccc3C(F)(F)F)CC2)n1 , state whether its pIC50 is greater than or equal to 7.
Output: yes

Task: Please check the record CNc1nc(C)cc(N2CCC(C(=O)NCc3ccccc3C(F)(F)F)CC2)n1 and state if its pIC50 is at or above 7.
Output: yes

Task: Is the recorded value of pIC50 equal to or greater than 7 for this compound? CCc1nc(NC)nc(N2CCC(C(=O)NCc3ccccc3C(F)(F)F)CC2)n1
Output: yes

----------
# EXPERIMENTAL DETAILS: Plasma clearance in rat at 1 mg/kg, iv
# Type: ADME, organism-based
# Parameters: dose 1 mg/kg, route intravenous
Decision: clearance >= 40 mL/min/kg yields Criterion met, all other cases yield Criterion not met.

Task: State whether the measured clearance reaches 40 mL/min/kg, counting equality as reaching it, for CNc1nc(NC)nc(N2CCC(C(=O)NCc3ccccc3C(F)(F)F)CC2)n1
Output: Criterion met

Task: Does clearance meet or surpass 40 mL/min/kg for CNc1nc(C)nc(N2CCC(C(=O)NCc3ccc(OC)cc3C(F)(F)F)CC2)n1 ?
Output: Criterion not met

Task: Reported clearance at or above 40 mL/min/kg? CNc1nc(N(C)CCN(C)C)nc(N2CCC(C(=O)NCc3ccccc3C(F)(F)F)CC2)n1
Output: Criterion met

Task: Please check the record CNc1nc(C)nc(N2CCC(C(=O)NCc3ccccc3OC(F)(F)F)CC2)n1 and state if its clearance is at or above 40 mL/min/kg.
Output: Criterion met

Task: Quick check, clearance >= 40 mL/min/kg? CNc1nc(N2CCC(C(=O)NCc3ccccc3C(F)(F)F)CC2)nc(N2CCN(C)CC2)n1
Output: Criterion met

Task: Please check the record CNc1nc(C)nc(N2CCC(C(=O)NCc3ccccc3C(F)(F)F)CC2)n1 and state if its clearance is at or above 40 mL/min/kg.
Output: Criterion met

Task: Is clearance at least 40 mL/min/kg? Consider CNc1nc(C)nc(N2CCC(C(=O)NCc3ccc(Br)cc3OC(F)(F)F)CC2)n1
Output: Criterion not met

Task: Decide: clearance of CNc1cc(C)cc(N2CCC(C(=O)NCc3ccccc3C(F)(F)F)CC2)n1 >= 40 mL/min/kg?
Output: Criterion met

Task: Threshold query (clearance >= 40 mL/min/kg) on CNc1cc(N2CCC(C(=O)NCc3ccccc3C(F)(F)F)CC2)nc(C)n1
Output: Criterion met

Task: Say whether COCCNc1nc(C)nc(N2CCC(C(=O)NCc3ccccc3C(F)(F)F)CC2)n1 shows clearance of 40 mL/min/kg or more.
Output: Criterion not met

Task: Is the recorded value of clearance equal to or greater than 40 mL/min/kg for this molecule? CNc1nc(-c2ccccc2)nc(N2CCC(C(=O)NCc3ccccc3C(F)(F)F)CC2)n1
Output: Criterion not met

----------
Provide the reported log10 IC50 of each item.
# TARGET OR TEST SYSTEM: Bifunctional epoxide hydrolase 2 (Homo sapiens, UniProt P34913)
# Sequence (P34913 whole entry): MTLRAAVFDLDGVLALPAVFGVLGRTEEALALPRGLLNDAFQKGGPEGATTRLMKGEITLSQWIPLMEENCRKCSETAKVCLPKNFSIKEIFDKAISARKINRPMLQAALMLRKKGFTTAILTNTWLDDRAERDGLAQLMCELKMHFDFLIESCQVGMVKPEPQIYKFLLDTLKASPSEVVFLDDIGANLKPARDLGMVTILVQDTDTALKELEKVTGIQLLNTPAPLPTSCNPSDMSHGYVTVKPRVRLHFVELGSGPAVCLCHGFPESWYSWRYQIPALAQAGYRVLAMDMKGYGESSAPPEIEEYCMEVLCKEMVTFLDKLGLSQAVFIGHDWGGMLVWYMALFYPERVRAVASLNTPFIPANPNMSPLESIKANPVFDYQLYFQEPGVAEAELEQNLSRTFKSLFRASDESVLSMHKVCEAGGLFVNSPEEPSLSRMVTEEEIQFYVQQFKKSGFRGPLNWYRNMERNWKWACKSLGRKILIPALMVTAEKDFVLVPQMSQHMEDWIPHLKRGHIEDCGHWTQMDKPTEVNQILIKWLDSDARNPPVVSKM
Values reflect log10 of reported IC50 (nM).

Here is how some compounds turned out for log10 IC50.
CNc1nc(C)nc(N2CCC(C(=O)NCc3ccc(OC)cc3C(F)(F)F)CC2)n1 0.00
CNc1cc(C)cc(N2CCC(C(=O)NCc3ccccc3C(F)(F)F)CC2)c1 1.51

Go through the list and state log10 IC50 for each entry.
1. CNc1nc(C)nc(N2CCC(C(=O)NCc3ccc(OC(F)(F)F)cc3)CC2)n1
2. CNc1cc(C)cc(N2CCC(C(=O)NCc3ccccc3C(F)(F)F)CC2)n1
3. CNc1cc(C)nc(N2CCC(C(=O)NCc3ccccc3C(F)(F)F)CC2)n1
4. CNc1cc(C)nc(N2CCC(C(=O)NCc3ccccc3C(F)(F)F)CC2)c1

Output:
1. 2.60
2. 1.00
3. 2.20
4. 3.20

----------
# EXPERIMENTAL DETAILS: Half life in rat at 2 mg/kg, iv
# Type: ADME, organism-based
# Design: dose 2 mg/kg, route intravenous
# EXPERIMENTAL PARAMETERS: in vivo
ENDPOINT: half-life (h)
Give bare numbers, in h.

Task: // lookup half-life for CNc1nc(C)nc(N2CCC(C(=O)NCc3ccc(Br)cc3OC(F)(F)F)CC2)n1
Output: 4.6

----------
# EXPERIMENTAL DETAILS: Oral bioavailability in rat
# Assay type: ADME, organism-based
# EXPERIMENTAL PARAMETERS: in vivo
ENDPOINT: bioavailability (%)
One number for each entry, in %.

Task: I am curious: what bioavailability value has been reported for CNc1nc(C)nc(N2CCC(C(=O)NCc3ccc(Br)cc3OC(F)(F)F)CC2)n1 ?
Output: 100

----------
# TARGET OR TEST SYSTEM: Sodium channel protein type 5 subunit alpha (Homo sapiens, UniProt Q14524)
# Sequence (Q14524 whole entry): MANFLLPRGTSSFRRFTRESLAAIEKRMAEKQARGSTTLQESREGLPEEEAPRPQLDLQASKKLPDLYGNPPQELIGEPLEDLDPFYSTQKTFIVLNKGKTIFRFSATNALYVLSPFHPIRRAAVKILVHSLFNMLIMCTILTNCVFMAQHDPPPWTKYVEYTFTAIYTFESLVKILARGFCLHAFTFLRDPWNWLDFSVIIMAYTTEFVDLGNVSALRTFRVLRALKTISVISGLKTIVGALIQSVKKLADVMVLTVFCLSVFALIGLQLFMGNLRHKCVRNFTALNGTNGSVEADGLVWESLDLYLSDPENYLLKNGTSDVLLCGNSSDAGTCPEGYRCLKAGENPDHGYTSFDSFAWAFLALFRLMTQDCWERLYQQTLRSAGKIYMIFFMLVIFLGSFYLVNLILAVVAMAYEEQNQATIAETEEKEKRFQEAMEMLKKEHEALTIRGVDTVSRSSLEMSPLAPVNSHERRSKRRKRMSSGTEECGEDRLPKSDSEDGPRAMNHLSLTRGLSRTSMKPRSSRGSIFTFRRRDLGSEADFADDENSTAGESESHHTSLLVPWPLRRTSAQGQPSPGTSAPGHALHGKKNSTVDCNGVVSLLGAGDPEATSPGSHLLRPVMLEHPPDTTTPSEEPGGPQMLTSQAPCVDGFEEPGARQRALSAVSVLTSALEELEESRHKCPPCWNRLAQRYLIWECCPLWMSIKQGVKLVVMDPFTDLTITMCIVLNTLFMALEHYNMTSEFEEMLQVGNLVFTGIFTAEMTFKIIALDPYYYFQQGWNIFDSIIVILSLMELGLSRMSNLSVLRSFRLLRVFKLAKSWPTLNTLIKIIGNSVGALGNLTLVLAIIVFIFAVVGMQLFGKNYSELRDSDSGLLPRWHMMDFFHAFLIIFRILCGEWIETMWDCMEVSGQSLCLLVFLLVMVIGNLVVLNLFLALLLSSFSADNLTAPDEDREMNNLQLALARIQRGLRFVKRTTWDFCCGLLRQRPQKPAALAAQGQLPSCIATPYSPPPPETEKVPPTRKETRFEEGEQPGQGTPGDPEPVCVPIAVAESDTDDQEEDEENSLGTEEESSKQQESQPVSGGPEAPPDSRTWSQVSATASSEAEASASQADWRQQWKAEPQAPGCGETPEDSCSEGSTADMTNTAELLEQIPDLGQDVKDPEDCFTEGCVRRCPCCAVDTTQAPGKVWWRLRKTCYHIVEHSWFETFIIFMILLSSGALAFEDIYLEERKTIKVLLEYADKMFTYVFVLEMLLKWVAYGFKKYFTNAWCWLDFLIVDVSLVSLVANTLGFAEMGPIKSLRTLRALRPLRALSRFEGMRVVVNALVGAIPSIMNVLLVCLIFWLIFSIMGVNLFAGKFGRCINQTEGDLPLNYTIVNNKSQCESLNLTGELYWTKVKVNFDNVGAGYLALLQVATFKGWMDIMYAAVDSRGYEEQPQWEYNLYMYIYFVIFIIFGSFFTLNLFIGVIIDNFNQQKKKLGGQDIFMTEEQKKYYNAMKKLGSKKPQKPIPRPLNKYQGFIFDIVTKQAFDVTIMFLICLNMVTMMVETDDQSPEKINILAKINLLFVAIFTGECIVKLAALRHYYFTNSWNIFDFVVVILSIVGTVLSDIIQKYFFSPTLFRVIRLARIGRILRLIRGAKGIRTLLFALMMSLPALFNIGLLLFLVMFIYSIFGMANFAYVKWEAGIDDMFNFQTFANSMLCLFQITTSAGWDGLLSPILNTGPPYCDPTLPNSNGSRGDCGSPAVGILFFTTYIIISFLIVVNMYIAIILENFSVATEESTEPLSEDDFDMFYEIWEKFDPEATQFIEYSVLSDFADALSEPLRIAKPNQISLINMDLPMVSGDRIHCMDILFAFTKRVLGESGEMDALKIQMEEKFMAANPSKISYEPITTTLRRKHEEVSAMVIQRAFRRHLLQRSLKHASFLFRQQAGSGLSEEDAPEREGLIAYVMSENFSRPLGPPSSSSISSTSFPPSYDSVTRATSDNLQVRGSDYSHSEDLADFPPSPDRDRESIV
# EXPERIMENTAL DETAILS: Inhibition of NaV1.5 (unknown origin)
pIC50: −log10 of the molar value.
ENDPOINT: pIC50

Task: Value wanted: pIC50 (Sodium channel protein type 5 subunit alpha (Homo sapiens, UniProt Q14524)) of entry CNc1nc(C)nc(N2CCC(C(=O)NCc3ccc(Br)cc3OC(F)(F)F)CC2)n1
Output: < 5.00
